# System: SNB-19
# assay remarks: MTT cytotoxicity assay, human glioblastoma SNB-19
# Type: cell-based
# assay conditions: Homo sapiens, SNB-19; 72 h exposure, MTT; 95% confidence interval in brackets
So I've got a bunch of compounds here, and I need their IC50 values.
One number for each entry, in µM.

Worked cases, IC50 given:
Query (compound): CN(C)c1ccc(-c2nc3c([nH]2)c2c(c4ccccc43)OC(C)(C)CC2)cc1 ; field requested: IC50
21.1

What IC50 value was documented for this compound, CC1(C)CCc2c(c3ccccc3c3nc(-c4ccc(O)cc4)[nH]c23)O1 ?
31.9

Look up IC50: COc1cccc2c1C(=O)c1c(O)c3c(c(O)c1C2=O)C[C@@](O)(C(=O)CO)C[C@@H]3O[C@H]1C[C@H](N)[C@H](O)[C@H](C)O1 [Doxorubicin, reference compound]
2.21

May I ask what IC50 has been recorded for CC1(C)CCc2c(c3ccccc3c3nc(-c4ccc([N+](=O)[O-])cc4)[nH]c23)O1 ?
22.3

Request the reported IC50 associated with CC1(C)CCc2c(c3ccccc3c3nc(-c4ccccc4)[nH]c23)O1
27

Continuing:
IC50 lookup needed for CC1(C)CCc2c(c3ccccc3c3nc[nH]c23)O1 , thanks.
46.4

Just for reference, paper PMC10096064 is where these values come from.
